Below, each entry is listed alongside its reported ED50.
- ASSAY_SUMMARY: Test III: spontaneous motor activity, activity cage mouse treated orally (CNS depression)
- CONDITION_PARAMETERS: in vivo, po

# count of solved cases: 2
[[record]]
molecule = "N#Cc1cccnc1N1CCN(CCCCN2C(=O)CC3(CCCC3)CC2=O)CC1 [Compound No. 4]"
recorded_value = "97 mg/kg"

[[record]]
molecule = "O=C1CC2(CCCC2)CC(=O)N1CCCCN1CCN(c2ccccn2)CC1 [Compound No. 3]"
recorded_value = "10 mg/kg"


Task item: Fill blank: measured ED50 of the molecule COc1cccc(N2CCN(CCCN3C(=O)CC4(CCCC4)CC3=O)CC2)n1 [Compound No. 2] is ____.
Reply: 82 mg/kg

====

Dear all, this message contains pIC50 results, target or system dopamine binding, corpus striatum (Rattus norvegicus).
Recall that pIC50 is obtained by taking minus log10 of the concentration measured in molar.

[[record]]
molecule = "CC1CN(c2ncccc2C#N)CCN1CCCCN1C(=O)CC2(CCCC2)CC1=O (centres unmarked) [compound 5]"
target = "dopamine binding, corpus striatum (Rattus norvegicus)"
recorded_value = 6.40


Now turn to the next molecule.
Task item: Fill blank: measured pIC50 of the molecule COc1cccnc1N1CCN(CCCCN2C(=O)CC3(CCCC3)CC2=O)CC1 [Compound No. 7] is ____.
Reply: 7.00

====

- TARGET: alpha-adrenergic receptors in the cerebral cortex
- ASSAY_SUMMARY: Test VI: receptor binding assay, tritiated WB-4101 as ligand (alpha-adrenergic blockade)
- CONDITION_PARAMETERS: Test VI; tritiated WB-4101 as ligand; rat cerebral cortex; in excess of 100 nM is considered inactive
Param label: returns 1 when IC50 < 300 nM, returns -1 otherwise, including exact equality.

[[record]]
smiles = "CN(C)CCCN1c2ccccc2Sc2ccc(Cl)cc21"
target = "alpha-adrenergic receptors in the cerebral cortex"
class_name = 1

[[record]]
smiles = "O=C1CC2(CCCC2)CC(=O)N1CCCCN1CCN(c2ccccn2)CC1"
target = "alpha-adrenergic receptors in the cerebral cortex"
class_name = 1

[[record]]
smiles = "COc1cccnc1N1CCN(CCCCN2C(=O)CC3(CCCC3)CC2=O)CC1"
target = "alpha-adrenergic receptors in the cerebral cortex"
class_name = 1

[[record]]
smiles = "N#Cc1cccnc1N1CCN(CCCCN2C(=O)CC3(CCCC3)CC2=O)CC1"
target = "alpha-adrenergic receptors in the cerebral cortex"
class_name = -1


Field: next compound
Task item: Input COc1cccc(N2CCN(CCCN3C(=O)CC4(CCCC4)CC3=O)CC2)n1 ; condition: IC50 strictly below 300 nM. Does it hold?
Reply: 1

====

- TARGET: alpha-adrenergic receptor (Rattus norvegicus, UniProt P43140)
- Sequence (P43140 whole entry): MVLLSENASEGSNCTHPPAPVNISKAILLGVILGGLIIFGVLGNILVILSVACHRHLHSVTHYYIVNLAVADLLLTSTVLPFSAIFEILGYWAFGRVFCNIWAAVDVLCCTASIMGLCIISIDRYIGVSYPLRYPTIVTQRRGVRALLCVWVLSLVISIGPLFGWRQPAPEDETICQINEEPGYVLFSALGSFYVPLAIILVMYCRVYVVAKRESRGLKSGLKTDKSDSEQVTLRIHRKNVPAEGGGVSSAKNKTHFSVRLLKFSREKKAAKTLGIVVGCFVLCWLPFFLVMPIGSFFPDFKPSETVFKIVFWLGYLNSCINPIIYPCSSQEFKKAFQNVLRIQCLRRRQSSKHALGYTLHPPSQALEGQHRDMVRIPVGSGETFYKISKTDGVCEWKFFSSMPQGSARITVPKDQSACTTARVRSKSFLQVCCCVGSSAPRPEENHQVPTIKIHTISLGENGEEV
- ASSAY_SUMMARY: Test VII: alpha-adrenergic receptor blocking action in vitro, isolated rat seminal vesicle, 1-norepinephrine as spasmogen
QUANTITY_NAME: pIC50
Recall that pIC50 is obtained by taking minus log10 of the concentration measured in molar.

[[record]]
molecule = "COc1cccc(N2CCN(CCCN3C(=O)CC4(CCCC4)CC3=O)CC2)n1 [Compound No. 2]"
target = "alpha-adrenergic receptor (Rattus norvegicus, UniProt P43140)"
recorded_value = 6.74

[[record]]
molecule = "O=C1CC2(CCCC2)CC(=O)N1CCCCN1CCN(c2ccccn2)CC1 [Compound No. 3]"
target = "alpha-adrenergic receptor (Rattus norvegicus, UniProt P43140)"
recorded_value = 6.06


Now turn to the next molecule.
Task item: Fill blank: measured pIC50 of the molecule O=C1CC2(CCCC2)CC(=O)N1CCN1CCN(c2ccccn2)CC1 [compound 1] is ____.
Reply: 5.23
